Where these numbers come from: patent US9504676B2

Test system: RBL-2H3 cells
assayDetails: cells
Assay type: cell-based, rat
measurementParameters: Rattus norvegicus; RBL-2H3 cells; read-out: Degran. IC50: concentration inhibiting mast cell degranulation by 50%
propertyMeasured: IC50

INSERT INTO assay_data (compound, propertymeasured, reportedresult) VALUES
  ('O=C(C1=C(O)C(=O)N(Cc2cccnc2)C1c1cccc(Oc2ccccc2)c1)c1ccc(F)cc1 (stereo not shown) [Molecule 9]', 'IC50', '> 10 µg/mL'),
  ('COc1ccc(C2C(C(=O)c3cccs3)=C(O)C(=O)N2CCN2CCOCC2)cc1OC (stereo not shown) [Molecule 38]', 'IC50', '> 10 µg/mL'),
  ('CN(C)CCCN1C(=O)C(O)=C(C(=O)c2ccc(S(=O)(=O)N(C)C)cc2)C1c1ccc(Cl)c(Cl)c1 (stereo not shown) [Molecule 50]', 'IC50', '> 10 µg/mL'),
  ('CC(C)c1ccc(C2C(C(=O)c3ccccc3)=C(O)C(=O)N2CCN2CCOCC2)cc1 (stereo not shown) [Molecule 26]', 'IC50', '> 10 µg/mL'),
  ('C=CCn1c(SCC(=O)Nc2cccc(OC)c2)nnc1C(C)NC(=O)c1ccccc1 (stereo not shown) [Molecule 66]', 'IC50', '~5 µg/mL');

Prompt line: Using the record for CN(C)S(=O)(=O)c1ccc(C(=O)C2=C(O)C(=O)N(CCN3CCOCC3)C2c2ccccc2)cc1 (stereo not shown) [Molecule 32] , report its IC50.
Response line: > 10 µg/mL

Prompt line: Using the record for CCOC(=O)c1c(-c2ccccc2)oc2ccc(OC(C(=O)O)c3ccccc3)cc12 (stereo not shown) [Molecule 60] , report its IC50.
Response line: > 10 µg/mL

Prompt line: Using the record for O=C(C1=C(O)C(=O)N(Cc2cccnc2)C1c1cccc(Oc2ccccc2)c1)c1ccc(Cl)cc1 (stereo not shown) [Molecule 1] , report its IC50.
Response line: > 10 µg/mL

Prompt line: Using the record for CCOC(=O)C1=C(c2ccccc2)NC(SCC(=O)Nc2cccc(OC)c2)=C(C#N)C1c1ccco1 (stereo not shown) [Molecule 55] , report its IC50.
Response line: ~5 µg/mL

Prompt line: Using the record for COc1cccc(C(=O)N(Cc2cc3ccc(C)cc3nc2C)c2ccccc2OC)c1 [Molecule 70] , report its IC50.
Response line: > 10 µg/mL
